FYI, the data here is from ChEMBL document CHEMBL1201862.

GI50: recorded values
# System: Hs-578T
# assay_summary: NCI tumour cell line growth inhibition, 48 h
The source made the active and inactive calls. Rule as the data show it: active = GI50 up to about 1.1 µM and inactive = higher.

CC(=O)Nc1ccc(/C=C2/NC(=S)N(/C=C3\C(=O)Oc4ccccc4C3=O)C2=O)cc1 ... 22.5 µM (inactive)
Cn1[nH]nn/c1=N\N=C\c1ccccc1 ... > 10 µM (inactive)
CCOC(=O)/C(C(C)=O)=C(\OC(C)=O)c1ccncc1C(=O)O ... > 100 µM (inactive)
N#C/C=C1\C=CC(O)C(O)C1OC1OC(CO)C(O)C(O)C1O (stereo unspecified) ... > 100 µM (inactive)
O=C(NCCCl)NCc1ccccc1 ... > 100 µM (inactive)

Could you now consider this next compound?
Query: Kindly indicate its recorded GI50. Item: N#Cc1c(O)c(C=O)c(=O)n2c1[nH]c1ccccc12
Result: > 100 µM (inactive)
